Molecular target: jack bean urease (Canavalia ensiformis)
Sequence (P07374 whole entry, looked up): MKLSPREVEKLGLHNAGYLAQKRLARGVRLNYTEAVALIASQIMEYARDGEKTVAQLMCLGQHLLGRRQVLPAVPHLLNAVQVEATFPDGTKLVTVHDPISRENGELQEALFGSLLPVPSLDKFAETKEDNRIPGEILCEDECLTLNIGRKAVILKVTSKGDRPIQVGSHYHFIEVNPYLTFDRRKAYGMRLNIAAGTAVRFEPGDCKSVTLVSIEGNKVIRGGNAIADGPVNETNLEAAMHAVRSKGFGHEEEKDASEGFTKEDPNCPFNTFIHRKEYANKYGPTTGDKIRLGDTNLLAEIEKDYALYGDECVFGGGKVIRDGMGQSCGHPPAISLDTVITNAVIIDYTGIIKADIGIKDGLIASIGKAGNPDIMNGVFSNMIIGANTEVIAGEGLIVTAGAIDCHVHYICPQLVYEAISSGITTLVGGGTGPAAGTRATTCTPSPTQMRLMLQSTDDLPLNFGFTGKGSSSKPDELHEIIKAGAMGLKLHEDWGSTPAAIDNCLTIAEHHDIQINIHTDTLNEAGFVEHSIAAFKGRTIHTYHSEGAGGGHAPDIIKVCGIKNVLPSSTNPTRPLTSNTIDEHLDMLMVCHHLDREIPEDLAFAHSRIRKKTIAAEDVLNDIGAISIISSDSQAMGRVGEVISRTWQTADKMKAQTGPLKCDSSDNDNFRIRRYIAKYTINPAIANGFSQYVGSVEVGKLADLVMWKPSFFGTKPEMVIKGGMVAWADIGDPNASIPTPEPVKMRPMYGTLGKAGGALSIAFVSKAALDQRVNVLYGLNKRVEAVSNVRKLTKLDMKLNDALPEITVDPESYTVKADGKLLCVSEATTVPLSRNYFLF
Assay: % urease inhibition assay and IC50
Type: biochemical
Conditions: read-out: IC50 (μM), mean ± SEM, triplicate, mean ± SEM
quantity measured: IC50 (µM)
Give the quantity in µM, number only.

Prompt: Requested read-out: IC50. Entry: `NC(N)=S`
Response: 22.6

###

Molecular target: UniProt:P07374
quantity measured: Ki (µM)
Give the quantity in µM, number only.

Prompt: Requested read-out: Ki. Entry: `NC(N)=S`
Response: 18.2
